testedTarget: T1, mouse MAdCAM expressed on cells (mouse, UniProt Q61826 22-405)
T1 construct: whole, on cells
T1 sequence (looked up): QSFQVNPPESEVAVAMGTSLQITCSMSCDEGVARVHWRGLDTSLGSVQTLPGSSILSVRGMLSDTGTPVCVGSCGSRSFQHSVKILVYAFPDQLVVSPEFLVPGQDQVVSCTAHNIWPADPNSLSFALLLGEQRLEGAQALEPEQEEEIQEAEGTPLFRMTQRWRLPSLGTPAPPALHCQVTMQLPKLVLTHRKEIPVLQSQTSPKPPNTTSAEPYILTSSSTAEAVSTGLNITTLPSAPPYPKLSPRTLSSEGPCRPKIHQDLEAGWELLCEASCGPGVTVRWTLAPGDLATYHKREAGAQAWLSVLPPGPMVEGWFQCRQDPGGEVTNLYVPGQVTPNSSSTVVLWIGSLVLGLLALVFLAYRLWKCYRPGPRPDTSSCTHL
experimentNotes: cell binding

>  <binder>
MAdCAM Antibody Table 1 Clone 29 (scFv) scFv: QVQLVQSGAEVKKPGASVKVSCKASGYTFTSYYMHWVRQAPGQGLEWMAWMNPNSGNTGYAQKFQGRVTMTRDTSTSTVYMELSSLRSEDTAVYYCARDYDFWSGSLGYWGQGTLVTVSSGGGGSGGGGSGGGGSGGGGSDIQMTQSPSSLSASVGDRVTITCRASQGISNYLAWYQQKPGKAPKLLIYAASSLQSGVPSRFSGSGSGTDFTLTISSLQPEDFATYYCQQSYSTPWTFGQGTKVEIK

>  <binding result>
no binding

$$$$
>  <binder>
MAdCAM Antibody Table 1 Clone 19 (scFv) scFv: EVQLLESGGGLVQPGGSLRLSCAASGFTFDDYAMHWVRQAPGKGLEWVSGISWNSGSIGYADSVKGRFTISRDNSKNTLYLQMNSLRAEDTAVYYCAKDIVAAGHYYYGMDVWGQGTTVTVSSGGGGSGGGGSGGGGSGGGGSDIQMTQSPSSLSASVGDRVTITCQASQDISNYLNWYQQKPGKAPKLLIYDASNLETGVPSRFSGSGSGTDFTLTISSLQPEDFATYYCQQSYSTPLTFGGGTKVEIK

>  <binding result>
no binding

$$$$
>  <binder>
MAdCAM Antibody Table 1 Clone 61 (scFv) scFv: EVQLLESGGGLVQPGGSLRLSCAASEFTFSNAWMSWVRQAPGKGLEWVASISSTSAYIDYADSVKGRFTISRDNSKNTLYLQMNSLRAEDTAVYYCAREVVGATTFDYWGQGTLVTVSSGGGGSGGGGSGGGGSGGGGSDIQMTQSPSSLSASVGDRVTITCRASQSISTWLAWYQQKPGKAPKLLIYAASSLQSGVPSRFSGSGSGTDFTLTISSLQPEDFATYYCQQANAFPPTFGQGTRLEIK

>  <binding result>
binds

$$$$
>  <binder>
MAdCAM Antibody Table 1 Clone 15 (scFv) scFv: QVQLVQSGAEVKKPGSSVKVSCKASGYTFTNYYMHWVRQAPGQGLEWMGGIIPIVDRVKYAQKFQGRVTITADESTSTAYMELSSLRSEDTAVYYCAKGRYTVNYYYGMDVWGQGTTVTVSSGGGGSGGGGSGGGGSGGGGSDIQMTQSPSSLSASVGDRVTITCQANQDISNYLNWYQQKPGKAPKLLIYRASKLEAGVPSRFSGSGSGTDFTLTISSLQPEDFATYYCQQSSEIPYSFGQGTKLEIK

>  <binding result>
no binding

$$$$
>  <binder>
MAdCAM Antibody Table 1 Clone 65 (scFv) scFv: QVQLVQSGAEVKKPGASVKVSCKASGYTFTRHWIHWVRQAPGQGLEWMGWINVKTGGAGYAQKFQGRVTMTRDTSTSTVYMELSSLRSEDTAVYYCARESSGWYGTDVWGQGTTVTVSSGGGGSGGGGSGGGGSGGGGSDIQMTQSPSSLSASVGDRATITCRASQSISNYLAWYQQKPGKAPKLLIYAASSLQSGVPSRFSGSGSGTDFTLTISSLQPEDFATYYCQQSNSFPLTFGGGTKVEIK

>  <binding result>
binds

$$$$
>  <binder>
MAdCAM Antibody Table 1 Clone 12 (scFv) scFv: QVQLVQSGAEVKKPGASVKVSCKASGYTFTGYYMHWVRQAPGQGLEWMGWIGPNSGDTNYAQKFQGRVTMTRDTSTSTVYMELSSLRSEDTAVYYCARDLDHNWYFDLWGRGTLVTVSSGGGGSGGGGSGGGGSGGGGSDIVMTQSPLSLPVTPGEPASISCRSSQSLLHSNGYNYLDWYLQKPGQSPQLLIYSSSNRAPGVPDRFSGSGSGTDFTLKISRVEAEDVGVYYCMQALHIPLTFGGGTKVEIK

>  <binding result>
no binding

$$$$
>  <binder>
MAdCAM Antibody Table 1 Clone 23 (scFv) scFv: EVQLLESGGGLVQPGGSLRLSCAASGFTFSSYAMHWVRQAPGKGLEWVSGISGSGGSAYYADSVKGRFTISRDNSKNTLYLQMNSLRAEDTAVYYCATSQAPVDYYYYGMDVWGQGTTVTVSSGGGGSGGGGSGGGGSGGGGSDIQMTQSPSSLSASVGDRVTITCRASQSISSWLAWYQQKPGKAPKLLIYAASNLQRGVPSRFSGSGSGTDFTLTISSLQPEDFATYYCQQSYSIPITFGQGTKVEIK

>  <binding result>
no binding

$$$$
>  <binder>
MAdCAM Antibody Table 1 Clone 30 (scFv) scFv: QVQLVQSGAEVKKPGASVKVSCKASGYTLTTWYMYWVRQAPGQGLEWMGWINPNRGATNYAQKFQGRVTMTRDTSTSTVYMELSSLRSEDTAVYYCAKGDLWGAMDVWGQGTLVTVSSGGGGSGGGGSGGGGSGGGGSDIQMTQSPSSLSASVGDRVTITCRASDNIGSWLAWYQQKPGKAPKLLIYAASSLQSGVPSRFSGSGSGTDFTLTISSLQPEDFATYYCQQGYSTPPTFGQGTKVEIK

>  <binding result>
no binding

$$$$
>  <binder>
MAdCAM Antibody Table 1 Clone 48 (scFv) scFv: EVQLLESGGGLVQPGGSLRLSCAASGFTFSDHGMHWVRQAPGKGLEWVSVIYGGESTYYADSVKGRFTISRDNSKNTLYLQMNSLRAEDTAVYYCARDPAVAGGGIFDYWGQGTLVTVSSGGGGSGGGGSGGGGSGGGGSDIQMTQSPSSLSASVGDRVTITCRASQGISNYLAWYQQKPGKAPKLLIYDASNLETGVPSRFSGSGSGTDFTLTISSLQPEDFATYYCQQSYSTCYTFGQGTKLEIK

>  <binding result>
no binding

$$$$
>  <binder>
MAdCAM Antibody Table 1 Clone 7 (scFv) scFv: QVQLVQSGAEVKKPGASVKVSCKASGYTFTGYHIHWVRQAPGQGLEWMGIINPSGGSTIYAQKFQGRVTMTRDTSTSTVYMELSSLRSEDTAVYYCAKDWSSWYLGPFDYWGQGTLVTVSSGGGGSGGGGSGGGGSGGGGSDIQMTQSPSSLSASVGDRVTITCRASQNISSSLNWYQQKPGKAPKLLIYAASSLQSGVPSRFSGSGSGTDFTLTISSLQPEDFATYYCQQSYTTPYTFGQGTKVEIK

>  <binding result>
binds

$$$$
